# Target of assay: T1, human APJ receptor (human, UniProt P35414 1-380)
# T1 sequence (looked up): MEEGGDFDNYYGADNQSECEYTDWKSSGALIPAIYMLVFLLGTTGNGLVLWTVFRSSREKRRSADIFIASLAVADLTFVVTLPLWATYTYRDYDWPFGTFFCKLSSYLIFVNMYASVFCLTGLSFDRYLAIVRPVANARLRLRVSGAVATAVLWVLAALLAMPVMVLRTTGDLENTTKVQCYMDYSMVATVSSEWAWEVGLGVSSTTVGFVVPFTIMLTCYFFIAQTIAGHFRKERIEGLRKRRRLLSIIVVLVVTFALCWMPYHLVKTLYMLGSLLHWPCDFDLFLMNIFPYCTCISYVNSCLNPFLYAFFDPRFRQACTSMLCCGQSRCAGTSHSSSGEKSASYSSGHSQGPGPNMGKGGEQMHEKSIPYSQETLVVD
# Experiment: cell-based or functional assay
Starred links: 1 amine or outer side, 2 acyl side, 3 side chain; linkers in the order of their positions; H or OH if unused. Non-standard residues stand in square brackets, D forms with d. No end group written: not given here. *: point of attachment. rLys = lysine with ψ(CH2NH) reduced amide bond, C(CC[C@@H](C[*:2])N[*:1])CN[*:3]; Propanoyl(3-triazol-4-yl) = O=C(CCc1cn([*:1])nn1)[*:2]; dBip = N[C@H](Cc1ccc(-c2ccccc2)cc1)C(=O)O; Oic = O=C(O)[C@@H]1C[C@@H]2CCCC[C@@H]2N1; Phe(4-Cl) = N[C@@H](Cc1ccc(Cl)cc1)C(=O)O; dPhe(4-Cl) = N[C@H](Cc1ccc(Cl)cc1)C(=O)O; Phe(4-I) = N[C@@H](Cc1ccc(I)cc1)C(=O)O; γGlu = O=C(O)[C@H](CCC(=O)[*:2])N[*:1]; Tridecanoyl = CCCCCCCCCCCCC(=O)*; hArg = N=C(N)NCCCC[C@H](N)C(=O)O; Cha = N[C@@H](CC1CCCCC1)C(=O)O; NMeL = CN[C@@H](CC(C)C)C(=O)O; β3hK = NCCCC[C@H](N)CC(=O)O; Nle = CCCC[C@H](N)C(=O)O; Orn = NCCC[C@H](N)C(=O)O; AEEA = NCCOCCOCC(=O)O; Aib = CC(C)(N)C(=O)O; BLeu = β-leucine
Decide using EC50 Human APJ Receptor alone. Strictly below 0.5 nM: T. Equal to or above 0.5 nM: F.

Examples from the recorded data:
- {20K‑mPEGReg-Propanoyl(3-triazol-4-yl)}-[hArg][dR]Q[hArg]P[dR][NMeL]SHKG[Oic][Phe(4-I)]P[dBip]-OH (also: 20 kDa PEG conjugate) [apelin polypeptide SEQ ID NO: 103]: F
- [Orn]F[hArg][hArg]Q[hArg]P[hArg][Cha]SH[β3hK]G[Oic][Nle]P[Phe(4-Cl)] [apelin polypeptide SEQ ID NO: 701]: T

Determine if Ac-[Orn]F[hArg][hArg]QRP[hArg][Cha]SHKGP[Nle][Phe(4-Cl)]-OH (SMILES CCCC[C@H](NC(=O)[C@@H]1CCCN1C(=O)CNC(=O)[C@H](CCCCN)NC(=O)[C@H](Cc1c[nH]cn1)NC(=O)[C@H](CO)NC(=O)[C@H](CC1CCCCC1)NC(=O)[C@H](CCCCNC(=N)N)NC(=O)[C@@H]1CCCN1C(=O)[C@H](CCCNC(=N)N)NC(=O)[C@H](CCC(N)=O)NC(=O)[C@H](CCCCNC(=N)N)NC(=O)[C@H](CCCCNC(=N)N)NC(=O)[C@H](Cc1ccccc1)NC(=O)[C@H](CCCN)NC(C)=O)C(=O)N[C@@H](Cc1ccc(Cl)cc1)C(=O)O) [apelin polypeptide SEQ ID NO: 48] shows EC50 Human APJ Receptor strictly lower than 0.5 nM.
T

Lab log: compare recorded EC50 Human APJ Receptor with 0.5 nM; is it strictly lower for [Orn]F[hArg][hArg]Q[hArg]P[hArg][Cha]SHKG[Aib][Nle]P[Phe(4-Cl)] [apelin polypeptide SEQ ID NO: 682] ?
F

For this binder, is EC50 Human APJ Receptor lower than 0.5 nM? Ac-[Orn]F[hArg][hArg]Q[hArg]P[hArg][Cha]SH[rLys]G[Oic][Nle]P[Phe(4-Cl)]-OH (also: reduced amide bond (CH2NH) at residue 12) [apelin polypeptide SEQ ID NO: 41]
T

Is it true that EC50 Human APJ Receptor reported for Ac-[dR][hArg]Q[hArg]P[dR][NMeL]SHKG[Oic][Phe(4-I)]P[dBip]-OH [apelin polypeptide SEQ ID NO: 18] is less than 0.5 nM?
T

Report whether reported EC50 Human APJ Receptor is lower than 0.5 nM (strictly) for Tridecanoyl-[γGlu][AEEA][AEEA][dQ][hArg]P[dR][BLeu]SHKG[Oic][Nle]P[dPhe(4-Cl)]-OH [apelin polypeptide SEQ ID NO: 281]
F
